Measured MIC, listed per entry for reference.
# System: Methicillin Resistant Staphylococcus aureus strain USA 300, NRS384
# test_name: Minimum inhibitory concentration, broth micro-dilution (CLSI), S. aureus
# Assay type: cell-based
# condition_summary: Staphylococcus aureus, MRSA / NRS 384 / USA300, 22 h, MRSA USA 300 NRS384; 35° C., 22 hours; read-out: MIC (μg/mL) S. aureus

{"columns": ["molecule", "MIC [µg/mL]"],
 "data": [
  ["CCCCCCCCCCCCCC(=O)N(C)[C@@H]1C(=O)N[C@@H](C)C(=O)N[C@H](C(=O)N[C@@H](C)C#N)Cc2ccc(OCCN)c(c2)-c2cc1ccc2OCCN [Compound 474]", 2],
  ["C[C@@H]1NC(=O)[C@@H](N(C)C(=O)[C@H](CCN)NC(=O)CCCc2ccc(F)cc2)c2ccc(OCCN)c(c2)-c2cc(ccc2OCCN)C[C@@H](C(=O)NCC#N)NC1=O [Compound 493]", 3],
  ["CCCCCCCc1cc(C)c(C(=O)N[C@@H](CCN)C(=O)N(C)[C@@H]2C(=O)N[C@@H](C)C(=O)N[C@H](C(=O)NCC#N)Cc3ccc(OCCN)c(c3)-c3cc2ccc3OCCN)cc1F [Compound 203]", 0.031]
]}

###

Measured pIC50, listed per entry for reference.
# measured_target: SpsB (Staphylococcus aureus signal peptidase) (Staphylococcus aureus)
# Construct: This assay uses a suspension of Staphylococcus aureus cells as a source of SpsB instead of recombinant SpsB protein; endogenous in cells; host or cells: S. aureus, USA300 background, overexpressing SpsB (whole-cell suspension from frozen pellets)
# Sequence (P0A070 whole entry): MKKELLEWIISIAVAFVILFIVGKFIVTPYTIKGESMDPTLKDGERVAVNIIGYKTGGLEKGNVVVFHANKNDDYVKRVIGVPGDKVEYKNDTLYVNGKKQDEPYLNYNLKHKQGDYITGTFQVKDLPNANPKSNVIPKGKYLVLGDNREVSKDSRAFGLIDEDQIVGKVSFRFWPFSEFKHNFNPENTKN
# test_name: cell-based
# Assay type: biochemical
# condition_summary: SpsB IC50, whole-cell S. aureus (USA300 background, overexpressing SpsB) as SpsB source; fluorogenic peptide substrate, kinetic read 30 min
pIC50: −log10 of the molar value.
experimental_endpoint: pIC50

{"columns": ["smi", "value_qualifier", "quantitative_readout"],
 "data": [
  ["CCCCCCCCCCCNC(=O)N[C@@H](CCN)C(=O)N(C)[C@@H]1C(=O)N[C@@H](C)C(=O)N[C@H](C(=O)NCC#N)Cc2ccc(OCCN)c(c2)-c2cc1ccc2OCCN", ">", 9.30],
  ["CCCCc1ccc(Oc2ncc(C(=O)N[C@@H](CCN)C(=O)N(C)[C@@H]3C(=O)N[C@@H](C)C(=O)N[C@H](C(=O)NCC#N)Cc4ccc(OCCN)c(c4)-c4cc3ccc4OCCN)c(C)n2)cc1", "=", 9.16],
  ["CCCCCCCCCCCC(=O)N[C@@H](C)C(=O)N(C)[C@@H]1C(=O)N[C@@H](C)C(=O)N[C@H](C(=O)NCC#N)Cc2ccc(OCCN)c(c2)-c2cc1ccc2OCCN", "=", 8.85],
  ["CCCCc1ccc(-c2ccc(C(=O)N[C@@H](CCCCN)C(=O)N(C)[C@@H]3C(=O)N[C@@H](C)C(=O)N[C@H](C(=O)NC(C)(C)C#N)Cc4ccc(OCCN)c(c4)-c4cc3ccc4OCCN)cc2)cc1", "=", 7.77],
  ["C[C@@H]1NC(=O)[C@@H](N(C)C(=O)[C@H](CCN)NC(=O)c2ccc(C(C)(C)C)cc2C(F)F)c2ccc(OCCN)c(c2)-c2cc(ccc2OCCN)C[C@@H](C(=O)NCC#N)NC1=O", "=", 8.82]
]}

###

# Tested on: Methicillin Resistant Staphylococcus aureus strain USA 300, NRS384
# test_name: Minimum inhibitory concentration, broth micro-dilution (CLSI), S. aureus
# Assay type: cell-based
# condition_summary: Staphylococcus aureus, MRSA / NRS 384 / USA300, 22 h, MRSA USA 300 NRS384; 35° C., 22 hours; read-out: MIC (μg/mL) S. aureus

{"columns": ["compound", "measured_target", "MIC [µg/mL]"],
 "data": [
  ["CCCCCCCCCCCCCC(=O)N[C@@H](CCN)C(=O)N(C)[C@@H]1C(=O)N[C@@H](C)C(=O)N[C@H](C(=O)NCC#N)Cc2ccc(OCCN)c(c2)-c2cc1ccc2OCCO [Compound 329]", "Methicillin Resistant Staphylococcus aureus strain USA 300, NRS384", 0.063],
  ["Cc1cc(-n2cc(CC(C)C)cn2)ccc1C(=O)N[C@@H](CCN)C(=O)N(C)[C@@H]1C(=O)N[C@@H](C)C(=O)N[C@H](C(=O)NCC#N)Cc2ccc(OCCN)c(c2)-c2cc1ccc2OCCN [Compound 445]", "Methicillin Resistant Staphylococcus aureus strain USA 300, NRS384", 0.094],
  ["CCCCc1ccc(-c2ccc(C(=O)N[C@@H](CO)C(=O)N(C)[C@@H]3C(=O)N[C@@H](C)C(=O)N[C@H](C(=O)NCC#N)Cc4ccc(OCCN)c(c4)-c4cc3ccc4OCCN)cc2)cc1 [Compound 249]", "Methicillin Resistant Staphylococcus aureus strain USA 300, NRS384", 0.13],
  ["Cc1cc(OCC(C)(C)C)ccc1C(=O)N[C@@H](CCN)C(=O)N(C)[C@@H]1C(=O)N[C@@H](C)C(=O)N[C@H](C(=O)NCC#N)Cc2ccc(OCCN)c(c2)-c2cc1ccc2OCCN [Compound 280]", "Methicillin Resistant Staphylococcus aureus strain USA 300, NRS384", 0.13],
  ["CCCCCCCc1ccc(C(=O)N[C@@H](CCCN)C(=O)N(C)[C@@H]2C(=O)N[C@@H](C)C(=O)N[C@H](C(=O)NCC#N)Cc3ccc(OCCN)c(c3)-c3cc2ccc3OCCN)c(C)c1 [Compound 194]", "Methicillin Resistant Staphylococcus aureus strain USA 300, NRS384", 0.016],
  ["CCCCCCCc1ccc(C(=O)N[C@@H](CCO)C(=O)N(C)[C@@H]2C(=O)N[C@@H](C)C(=O)N[C@H](C(=O)NCC#N)Cc3ccc(OCCN)c(c3)-c3cc2ccc3OCCN)c(C)c1 [Compound 260]", "Methicillin Resistant Staphylococcus aureus strain USA 300, NRS384", 0.094],
  ["CCCCc1ccc(-c2ncc(C(=O)N[C@@H](CCN)C(=O)N(C)[C@@H]3C(=O)N[C@@H](C)C(=O)N[C@H](C(=O)NCC#N)Cc4ccc(O)c(c4)-c4cc3ccc4OCCN)c(C)n2)cc1 [Compound 503]", "Methicillin Resistant Staphylococcus aureus strain USA 300, NRS384", 0.031],
  ["CCCCCCCCCCCCCC(=O)N[C@@H](CN)C(=O)N(C)[C@@H]1C(=O)N[C@@H](C)C(=O)N[C@H](C(=O)N[C@@H](C)C#N)Cc2ccc(OCCN)c(c2)-c2cc1ccc2OCCN [Compound 342]", "Methicillin Resistant Staphylococcus aureus strain USA 300, NRS384", 0.19],
  ["CCCCCCCCc1ccc(C(=O)N[C@@H](CCC(=O)NC)C(=O)N(C)[C@@H]2C(=O)N[C@@H](C)C(=O)N[C@H](C(=O)NCC#N)Cc3ccc(OCCN)c(c3)-c3cc2ccc3OCCN)c(C)c1 [Compound 501]", "Methicillin Resistant Staphylococcus aureus strain USA 300, NRS384", 0.38],
  ["Cc1cc(-c2ncc(CC(C)C)cn2)ccc1C(=O)N[C@@H](CCN)C(=O)N(C)[C@@H]1C(=O)N[C@@H](C)C(=O)N[C@H](C(=O)NCC#N)Cc2ccc(OCCN)c(c2)-c2cc1ccc2OCCN [Compound 174]", "Methicillin Resistant Staphylococcus aureus strain USA 300, NRS384", 0.17]
]}

###

Measured IC50, listed per entry for reference.
# measured_target: SpsB (Staphylococcus aureus signal peptidase) (Staphylococcus aureus)
# Construct: This assay uses a suspension of Staphylococcus aureus cells as a source of SpsB instead of recombinant SpsB protein; endogenous in cells; host or cells: S. aureus, USA300 background, overexpressing SpsB (whole-cell suspension from frozen pellets)
# test_name: cell-based
# Type: biochemical
# condition_summary: SpsB IC50, whole-cell S. aureus (USA300 background, overexpressing SpsB) as SpsB source; fluorogenic peptide substrate, kinetic read 30 min

{"columns": ["molecule", "value_qualifier", "IC50 / nM"],
 "data": [
  ["CCCCCCCCCC(=O)N[C@@H](CC(N)=O)C(=O)N(C)[C@@H]1C(=O)N[C@@H](C)C(=O)N[C@H](C(=O)NCC#N)Cc2ccc(OCCN)c(c2)-c2cc1ccc2OCCN [Compound 236]", "=", 1.5],
  ["CCCCc1ccc(C(=O)N[C@@H](CCN)C(=O)N(C)[C@@H]2C(=O)N[C@@H](C)C(=O)N[C@H](C(=O)NCC#N)Cc3ccc(OCCN)c(c3)-c3cc2ccc3OCCN)c(C)c1 [Compound 208]", "=", 0.99],
  ["CCCCc1ccc(C(=O)NCC(=O)N[C@@H](CCN)C(=O)N(C)[C@@H]2C(=O)N[C@@H](C)C(=O)N[C@H](C(=O)NCC#N)Cc3ccc(OCCN)c(c3)-c3cc2ccc3OCCN)c(C)c1 [Compound 370]", "=", 1.1],
  ["C[C@@H]1NC(=O)[C@@H](N(C)C(=O)[C@H](CO)NC(=O)c2cnc(-c3ccc(Cl)cc3)nc2)c2ccc(OCCN)c(c2)-c2cc(ccc2OCCN)C[C@@H](C(=O)NCC#N)NC1=O [Compound 234]", "=", 3.9],
  ["CCCCCCCCc1ccc(C(=O)N[C@@H](CCN)C(=O)N(C)[C@@H]2C(=O)N[C@@H](C)C(=O)N[C@H](C(=O)NCC#N)Cc3ccc(OCCN)c(c3)-c3cc2ccc3OCCN)c(C)c1 [Compound 339]", "<", 0.5],
  ["CCCCCCCCCCCCCC(=O)N[C@@H](CCN)C(=O)N(C)[C@@H]1C(=O)N[C@@H](C)C(=O)N[C@H](C(=O)NCC#N)Cc2ccc(OCCC)c(c2)-c2cc1ccc2OCCN [Compound 323]", "=", 2.8],
  ["Cc1cc(OCC2(C)CCCCC2)ccc1C(=O)N[C@@H](CCN)C(=O)N(C)[C@@H]1C(=O)N[C@@H](C)C(=O)N[C@H](C(=O)NCC#N)Cc2ccc(OCCN)c(c2)-c2cc1ccc2OCCN [Compound 289]", "=", 0.93],
  ["CCCCc1ccc(C(=O)NCC(=O)NCC(=O)N[C@@H](CCN)C(=O)N(C)[C@@H]2C(=O)N[C@@H](C)C(=O)N[C@H](C(=O)NCC#N)Cc3ccc(OCCN)c(c3)-c3cc2ccc3OCCN)c(C)c1 [Compound 371]", "=", 1.3],
  ["CCCCc1ccc(-c2ccc(C(=O)N[C@@H](CCCN)C(=O)N(C)[C@@H]3C(=O)N[C@@H](C)C(=O)N[C@H](C(=O)NCC#N)Cc4ccc(OCCN)c(c4)-c4cc3ccc4OCCN)c(C)c2)cc1 [Compound 142]", "=", 0.72],
  ["CCCCCCCCc1ccc(C(=O)N[C@@H](C)C(=O)N(C)[C@@H]2C(=O)N[C@@H](C)C(=O)N[C@H](C(=O)NCC#N)Cc3ccc(OCCN)c(c3)-c3cc2ccc3OCCN)c(C)c1 [Compound 243]", "=", 1.3]
]}

Value source: patent US20180327367A1
